tested on: A549 lung cancer cell line; assay: In vitro anticancer activity, MTT assay; assay type: cell-based, human; settings: Homo sapiens, A549; lung cancer cell line; MTT, 48 h continuous drug exposure; read-out: IC50 A549
pIC50: −log10 of the molar value.
Listing of recorded pIC50 by entry.
assay-metric: pIC50

[[record]]
compound = "COc1cc2cc3c(cc2cc1OCCN1CCN(c2ccccn2)CC1)C(=O)N1CCC[C@H]1C=N3 [23a]"
assay_metric = "pIC50"
measured_number = 5.70

[[record]]
compound = "CCN1CCN(CCOc2cc3cc4c(cc3cc2OC)N=C[C@@H]2CCCN2C4=O)CC1 [15a]"
assay_metric = "pIC50"
measured_number = 6.27

[[record]]
compound = "COc1cc2cc3c(cc2cc1OCCN1CCN(c2ccc(F)cc2)CC1)C(=O)N1CCC[C@H]1C=N3 [20a]"
assay_metric = "pIC50"
measured_number = 4.98

[[record]]
compound = "COc1cc2cc3c(cc2cc1OCCN1CCN(c2ncccn2)CC1)C(=O)N1CCC[C@H]1C=N3 [24a]"
assay_metric = "pIC50"
measured_number = 4.92

[[record]]
compound = "COc1cc2cc3c(cc2cc1OCCN1CCN(c2ccccc2)CC1)C(=O)N1CCC[C@H]1C=N3 [19a]"
assay_metric = "pIC50"
measured_number = 5.00


From: patent US8759339B2
